measured_target: human PCSK9 (PCSK9 antigen, SEQ ID NO. 53) (human, UniProt A8T644 31-152; Q8NBP7 153-692, Biotin-labelled on amines in the MSD-SET and sorting experiments; positions not given.); also: unit not given here
experimental_protocol: cell-based or functional assay
metric_name: BODIPY-LDL uptake by HepG2 cells, fluorescence, 16.8 nM, replicate 1
The answer should be written as a number, with no unit following it.

Worked set:
ADI-10085 (antibody, human IgG2, kappa, V domains shown, IgG) VH: QLQLQESGPGLVKPSETLSLTCTVSGGSIVSSSYYWAWIRQPPGKGLEWIGSINYKGSTYYNPSLKSRVTISVDTSKNQFSLKLSSVTAADTAVYYCARENSGVVPAAGPNWFGPWGQGTLVTVSS VL: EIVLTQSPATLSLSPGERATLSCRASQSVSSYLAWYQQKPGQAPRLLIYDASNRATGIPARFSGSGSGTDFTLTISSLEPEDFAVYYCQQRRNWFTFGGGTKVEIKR; 0.78
ADI-02396 (antibody, human IgG2, kappa, V domains shown, IgG; also called parent antibody) VH: QLQLQESGPGLVKPSETLSLTCTVSGGSISSSSYYWGWIRQPPGKGLEWIGSIYYSGSTYYNPSLKSRVTISVDTSKNQFSLKLSSVTAADTAVYYCAREGSGVVPAAGPNWFDPWGQGTLVTVSS VL: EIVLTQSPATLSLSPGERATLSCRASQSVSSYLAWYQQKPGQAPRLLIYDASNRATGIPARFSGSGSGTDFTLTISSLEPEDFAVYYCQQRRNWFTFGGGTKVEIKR; 0.404
Evolocumab (antibody, V domains shown) VH: QVQLVQSGAEVKKPGASVKVSCKASGYTLTSYGISWVRQAPGQGLEWMGWVSFYNGNTNYAQKLQGRGTMTTDPSTSTAYMELRSLRSDDTAVYYCARGYGMDVWGQGTTVTVSS VL: QSALTQPASVSGSPGQSITISCTGTSSDVGGYNSVSWYQQHPGKAPKLMIYEVSNRPSGVSNRFSGSKSGNTASLTISGLQAEDEADYYCNSYTSTSMVFGGGTKLTVL; 0.355

Q) Give the measured BODIPY-LDL uptake by HepG2 cells, fluorescence, 16.8 nM, replicate 1 of Lodelcizumab (antibody, V domains shown) VH: QVQLVQSGAEVKKPGASVKVSCKASGYTFSTMYMSWVRQAPGQGLEWMGRIDPANEHTNYAQKFQGRVTMTRDTSISTAYMELSRLTSDDTAVYYCARSYYYYNMDYWGQGTLVTVSS VL: QIVLTQSPATLSVSPGERATLSCRASQSVSYMHWYQQKPGQAPRLLIYGVFRRATGIPDRFSGSGSGTDFTLTIGRLEPEDFAVYYCLQWSSDPPTFGQGTKLEIK .
A) 0.317

Q) Give the measured BODIPY-LDL uptake by HepG2 cells, fluorescence, 16.8 nM, replicate 1 of ADI-10089 (antibody, human IgG2, kappa, V domains shown, IgG) VH: QLQLQESGPGLVKPSETLSLTCTVSGGSIGSSSYYWTWIRQPPGKGLEWIGSINYRGSTYYNPSLKSRVTISVDTSKNQFSLKLSSVTAADTAVYYCARENSGVVPAAGPNWFDPWGQGTLVTVSS VL: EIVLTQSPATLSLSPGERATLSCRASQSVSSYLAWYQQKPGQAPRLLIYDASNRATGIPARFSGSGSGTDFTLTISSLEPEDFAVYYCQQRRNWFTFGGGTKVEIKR .
A) 0.712

Q) Give the measured BODIPY-LDL uptake by HepG2 cells, fluorescence, 16.8 nM, replicate 1 of ADI-10088 (antibody, human IgG2, kappa, V domains shown, IgG) VH: QLQLQESGPGLVKPSETLSLTCTVSGGSIGSSSYYWAWIRQPPGKGLEWIGSINYRGSTYYNPSLKSRVTISVDTSKNQFSLKLSSVTAADTAVYYCARENSGVVPAAGPNWFDPWGQGTLVTVSS VL: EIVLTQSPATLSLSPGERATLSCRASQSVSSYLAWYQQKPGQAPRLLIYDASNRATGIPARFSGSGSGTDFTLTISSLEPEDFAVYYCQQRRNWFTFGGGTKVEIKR .
A) 0.574

Q) Give the measured BODIPY-LDL uptake by HepG2 cells, fluorescence, 16.8 nM, replicate 1 of ADI-10087 (antibody, human IgG2, kappa, V domains shown, also called anti-PCSK antibody of the invention) VH: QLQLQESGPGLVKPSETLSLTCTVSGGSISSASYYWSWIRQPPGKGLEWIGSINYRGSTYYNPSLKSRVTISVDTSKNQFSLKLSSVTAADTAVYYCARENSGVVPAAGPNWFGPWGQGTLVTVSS VL: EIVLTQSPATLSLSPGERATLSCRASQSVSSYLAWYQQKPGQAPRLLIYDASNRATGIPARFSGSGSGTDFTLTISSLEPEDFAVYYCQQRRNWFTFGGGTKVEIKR .
A) 0.72
